- target: CRF-binding protein / CRF-R2 receptor complex (human)
- method notes: activators of CRF-R2 paired with CRF-BP – cell-based, 384-well, SAR follow-up (AID 651648)
- test settings: cells expressing CRF-BP/CRF-R2 complex, agonist read-out
Active and inactive are the calls of the source. No rule for the calls is given here.
readout name: EC50

Requested field: EC50. Item: CC(=O)Nc1ccc(Sc2ncccc2C(=O)Nc2ccccc2Br)cc1
> 20 µM (inactive)

Requested field: EC50. Item: CCOc1ccccc1N(CC(=O)N1CCCC1)S(=O)(=O)c1ccc(SC)cc1
> 20 µM (inactive)

Requested field: EC50. Item: CCOC(=O)N1CCN(C(=O)c2c[nH]c3ccc(S(=O)(=O)N(C)c4cccc(C)c4)cc3c2=O)CC1
2.51 µM

Requested field: EC50. Item: Cc1ccc2oc(=O)c(/C=C(\O)c3sc(C)nc3C)nc2c1
> 20 µM (inactive)

Requested field: EC50. Item: CC1(C(=O)NC(=S)NNC(=O)c2ccncc2)CCCCC1
5.94 µM

Requested field: EC50. Item: COc1ccccc1N(CC(=O)N1CCOCC1)S(=O)(=O)c1ccc(C)cc1
> 20 µM (inactive)

Requested field: EC50. Item: CC(=O)Nc1ccc(Sc2ncccc2C(=O)Nc2ccc(N(O)O)cc2)cc1
1.96 µM

Value source: PubChem BioAssay AID651648
